The compounds below each have a reported IC50 tested on MALT1 (Homo sapiens); the values come from various publications.
Please give a number only; it is taken to be in nM.

Solved entries:
O=C(Nc1cnc2[nH]ncc2c1)c1cnn(-c2cccc3ncccc23)c1C(F)(F)F | 1120
CO[C@H](C)c1c(Cl)cncc1NC(=O)Nc1cnc(-n2nccn2)c(Cl)c1 | 110
N#Cc1cc(NC(=O)c2cnn(-c3ccc(F)c(F)c3)c2C(F)(F)F)cnc1-n1nccn1 | 245

Then there is this compound:
Ask: Give recorded IC50 with MALT1 (Homo sapiens) for the following compound: `O=C(Nc1cnc(-n2cc(CO)cn2)c(Cl)c1)c1cnn(-c2cccc3c(=O)[nH]ccc23)c1C(F)(F)F`
Reply: 35
